# system: T1, antibody raised against ETAG
# T1 construct: Coated at 500 ng/well; also called E-tag antibody
# procedure-text: phage ELISA
Form field: ETAG (OD) (one value per entry).
measurement-name: ETAG (OD)

[[record]]
binder = "RKGWGVFCIPGLRFCDWSDPAAAGAPVPYPDPLEPRP [DGI-2-20R-3-B4]"
result = "17.4 OD"

[[record]]
binder = "QMSRVAFSPGESWRRWVEGVAAAGAPVPYPDPLEPRP [DGI-2-20R-3-A2]"
result = "14.2 OD"

[[record]]
binder = "RRILPWSFPGCGRMCAAAGAPVPYPDPLEPRP [DGJ-2-20R-3-A10]"
result = "16.4 OD"

[[record]]
binder = "SVSGGGVFGTGGRVRHQVSGAAAGAPVPYPDPLEPRP [DGI-2-20F-PP-C5]"
result = "33.9 OD"

[[record]]
binder = "DQRVVGSGWFERLRNWYDRAAAAGAPVPYPDPLEPRP [DGI-2-20R-4-G99]"
result = "14.1 OD"

[[record]]
binder = "SRELGKWGRLWQDWSSGNFSAAAGAPVPYPDPLEPRP [DGI-2-20R-3-C11]"
result = "18.9 OD"


FYI, the data here is from patent US7056679.
